Observed pIC50, system HDAC8 (Homo sapiens (Human)).
By convention, pIC50 is the negative base-10 log of a molar concentration.

Use the examples below as a reference point.
molecule=FC(F)(F)c1nc(-c2ccc(CNC3Cc4ccccc4C3)nc2)no1 measure_name=pIC50 quantitative_result=5.38
molecule=FC(F)(F)c1nc(-c2ccc(CNC3CCN(c4ccccn4)CC3)nc2)no1 measure_name=pIC50 quantitative_result=5.11
molecule=Cc1noc([C@@H]2CCC(=O)N2c2ccc(-c3noc(C(F)(F)F)n3)c(F)c2)n1 measure_name=pIC50 quantitative_result=5.17
molecule=Cc1nnc(CC(=O)N(Cc2ccc(-c3noc(C(F)(F)F)n3)cc2)c2cccc(C(F)(F)F)c2)n1C measure_name=pIC50 quantitative_result=5.64
molecule="Cc1nonc1C1CCCN1c1ccc(-c2noc(C(F)(F)F)n2)cn1 (racemic)" measure_name=pIC50 quantitative_result=5.74

Give its pIC50 value. Item: `COCCn1nc(C(=O)N(Cc2ccc(-c3noc(C(F)(F)F)n3)cc2)c2cccc(C(F)(F)F)c2)ccc1=O`
5.48

Give its pIC50 value. Item: `FC(F)(F)c1nc(-c2ccc(CNc3cnoc3)nc2)no1`
5.92

Give its pIC50 value. Item: `O=C(NC1CC1)c1ccccc1NCc1ccc(-c2noc(C(F)(F)F)n2)cn1`
5.80
